- Test system: KB
- assayRemarks: Cytotoxicity against human KB cells by colorimetric method
- Assay type: functional, cell-based
measuredMetric: IC50 (µM)

structureString	readoutNumber
CO[C@@]1(C/C=C(\C)CC/C=C(\C)CC[C@@H](O)C(C)(C)O)C(=O)c2c(O)cc(C)c3c(O)c(C)c(O)c(c23)C1=O	48.4
